These data points were gathered from PubChem BioAssay AID743171.

Catalogue of Potency readings, one per entry.
molecular target: 15-hydroxyprostaglandin dehydrogenase [NAD(+)] (Homo sapiens); experiment: Extended Characterization of HPGD Inhibitors: Activity in Primary Assay (HPGD); settings: recombinant HPGD, NADH fluorescence, PGE2 substrate; series mostly up to 57.1 µM
Records with an inconclusive call do not appear. Activity calls are given as the source filed them. Calls follow the shape of the dose curve; as a rule, active = well fitted inhibition curve with a large enough effect; inconclusive = small, poorly fitted or top-dose-only effect; inactive = flat fitted curve, though single readings scatter.

Here is how some compounds turned out for Potency.
O=C(c1ccc2c(c1)ncn2-c1ccccc1)N1CCCCC1; 21.5 nM (active)
CC(C)c1cccc(-n2cnc3cc(C(=O)N4CCCCC4)ccc32)c1; 68.1 nM (active)
Cc1cc(-c2nnc3n2CCCC3)c(C)n1-c1ccccc1; 192 nM (active)

query: For the compound shown here, `Cc1cc(-c2nnc3n2CCCCC3)c(C)n1-c1ccncc1` , give the reported Potency.
result: 383 nM (active)

query: # input compound: `O=[N+]([O-])c1ccccc1CSc1nc2ncc(Br)cc2[nH]1` ; wanted: its Potency
result: 96.1 nM (active)
